Each entry below lists one item and its recorded pIC50 value.
# ASSAYED SYSTEM: SARS-CoV RTC (nsp12 in complex with nsp7L8) (Severe acute respiratory syndrome coronavirus)
# ASSAY OVERVIEW: biochemical
# SETUP CONDITIONS: IC50
The meaning of pIC50 here: minus log10 of the concentration in molar units.

>>> print(df.to_string())
                               entry_smiles  recorded_measurement
0  O=c1cc(-c2ccc(Oc3c(O)cc4oc(-c5ccc(O)cc5)cc(=O)c4c3O)cc2)oc2cc(O)cc(O)c12                  6.02

Here is the next item to consider.
[Q] Give the value of pIC50 reported for the following: O=c1cc(-c2ccc(O)cc2)oc2cc(O)cc(O)c12
[A] 4.02
